B1: tRNA (parent)
chain: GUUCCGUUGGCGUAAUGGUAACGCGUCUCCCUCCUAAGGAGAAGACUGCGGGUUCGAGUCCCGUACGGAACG

variants of: B1; test: yeast fitness relative to wild type (ratio to wild type); higher = fitter; tRNA-Arg(CCU), competitive growth, 37 C, YPD
This sample holds only a part of the variants without activity.
Outcome: MET for yeast fitness of at least 0.6; NOT MET for anything lower.

For this variant, is measured yeast fitness 0.6 or higher? GUCCUGUUGGCGUAAUGGUAACGCGUCUCCCUCCUAAGGAGAAGACUGCGGGUUCGAGUCCCGUACGAAACG NOT MET

For this variant, is measured yeast fitness 0.6 or higher? GUUCCGUUGGCGUAAUGGUAACGUGUCUCCCUCCCAAGGAGAAGACUGCGGGUUCGAGUCCCGUACGGACCG MET

For this variant, is measured yeast fitness 0.6 or higher? GUUCAGUUGGCGUAAUGGUAACGCGUCUCCCUCCGAAGGAGAAGACUGCGGGUUCGAGUUCGGUACGGAGCG NOT MET

For this variant, is measured yeast fitness 0.6 or higher? GUUGUGUUGGUGUGAUGGUAACGCGUCUCCCUCCUAAGGAGAAGACUGCGGGUUCGAGUCCCGUACGGAACG NOT MET

For this variant, is measured yeast fitness 0.6 or higher? GUUUCGAUGGCGUAAUGGUAACGCGUCUCCCUCCUAAGGAGAAGUCUGCGGGUUCGGGUCCCGUACGGAACG NOT MET

For this variant, is measured yeast fitness 0.6 or higher? GAUCCGUUGGCGUAAUGGUAACGCGCCUCCCUCCUAAGGAGAAGACUGCGGGUUUGAGUCCCGUACGGAACG NOT MET

For this variant, is measured yeast fitness 0.6 or higher? GUUCCGUUGGGGUAAUGGUAAAGCGUCUCCCUCCUAAGGAGAAGAGUGCGGGUUCGAGUCCCGUACGGAACG NOT MET

For this variant, is measured yeast fitness 0.6 or higher? GUUCCGUUGGCAUAAUGGUAACCCGUCUCCCUCCUAAGGAGAAGACUGCGGGUUCGAGUCCCGUACGGAACG MET

For this variant, is measured yeast fitness 0.6 or higher? GUUCCGUUGGGGAAAGGGUAACGCGACUCCCUCCUAAGGAGAAGACUGCGGGUUCGAGUCCCGUAUGGAACG NOT MET

For this variant, is measured yeast fitness 0.6 or higher? GUUCCGUAGGCGUAAUGGUAACGUGUCUCCCUCCUAAGGUGCAGUCUGCGGGUUCGAGUCCCGUACGGAACG NOT MET

For this variant, is measured yeast fitness 0.6 or higher? GUUCCGUUGGCGUAAUGGUAAAGCGUCUCCCUCCUAAGGAGAAGACAGCGGGUUCGAGUCCCGUACGGAACG MET

For this variant, is measured yeast fitness 0.6 or higher? GUUCCGUUGGCGUAAUGGUAACCCGUCUCCCUCCUAAGGAGGAGACUGCGGGUUCAAGUCCCGUACGGAACG NOT MET

For this variant, is measured yeast fitness 0.6 or higher? GUUGUGUUGGCGUAAUGGUAACGCGUCUCCCUCCUAAGGAGAAGACUGCGAGCUCGAGUCCUGUACGGAACG NOT MET

For this variant, is measured yeast fitness 0.6 or higher? GUUCCGUUGGAGUAAUGGUAACGCGUCUCCCUCCUAAGGAGAUGACUGCGGGUUCGAGUCCGGUACGGAUCG NOT MET

For this variant, is measured yeast fitness 0.6 or higher? GUUCCGUUGGCGUAAUGGUAACGAGUCUCCCUCCUAAGGAGAAGGCUGCGGGUUCGAGUCGUGUACGGAACG NOT MET

For this variant, is measured yeast fitness 0.6 or higher? GUUCCGUUGGCGUAAUGGUAAUGCGUCUCCCUCCUAAGCAGAAGACUCCGGGUUCGAGUCCCGUACGGAACG NOT MET

For this variant, is measured yeast fitness 0.6 or higher? GUUCCGUUGGCGUAGUGGUAACGCGUCUCCCUCCUAAGGAGAAGACUGCGGGUUCGAGUCCCGUCCGGAACG MET

For this variant, is measured yeast fitness 0.6 or higher? GUUCCGUUGGCGUAAUGGUAACGCGUCUCCCCCUUAAGGAGAAGUCUGCGGGUUCGAGUCCCGUACGGAACG MET

For this variant, is measured yeast fitness 0.6 or higher? GUUCCGUUGGCGUAAUGGUAACGCGUCUCCCUCCUAAGCAGAGGACUCCAGGUUCGAGUCCCGUACGGAACG NOT MET

For this variant, is measured yeast fitness 0.6 or higher? GUUACGUUGGCGUAAUGGUAACGCGUCUCCCUCCUAAGGAACAGACUGCGGGUUCGAGACCCGUACGGAACG NOT MET

For this variant, is measured yeast fitness 0.6 or higher? GUUCCGUUGGCCUAAUAGUAACGCGUCUCCCUCCUAAGGAGAAGAGUGCGGGUUCGAGUCCCGUAAGGAACG NOT MET

For this variant, is measured yeast fitness 0.6 or higher? GUUCCGUUGGCGUAAUGGUAACGCGUCUCCCUCCUAAGGAGAAGACUGUGGGUUCGAGUCGCGUACGGCACG NOT MET
